# TARGET ENTITY: Human immunodeficiency virus type 1 protease (Human immunodeficiency virus 1, UniProt Q72874)
# ASSAY PROTOCOL: Inhibition of HIV1 NL4-3 protease expressed in Escherichia coli TAP-106 cells using EDANS/DABCYL-labelled 10-amino acid containing protease cleavage site as substrate preincubated for 1 hr followed by substrate addition and measured for 60 mins by FRET assay
OBSERVATION TYPE: Ki (nM)
Just the number in nM, nothing appended.

>>> test_result("COC(=O)NC1(C(=O)N[C@@H](Cc2ccccc2)C[C@H](O)[C@H](Cc2ccccc2)NC(=O)O[C@H]2CO[C@H]3OCC[C@H]32)CCCC1")
7.3
>>> test_result("CC[C@H](C)[C@H](NC(=O)OC)C(=O)N[C@@H](Cc1ccccc1)[C@@H](O)C[C@H](Cc1ccccc1)NC(=O)O[C@H]1CO[C@H]2OCC[C@H]21")
0.055
>>> test_result("COC(=O)N[C@H](C(=O)N[C@@H](Cc1ccccc1)[C@@H](O)C[C@H](Cc1ccccc1)NC(=O)O[C@H]1CO[C@H]2OCC[C@H]21)C1CC1")
0.571

Entry COC(=O)N[C@H](C(=O)N[C@@H](Cc1ccccc1)[C@@H](O)C[C@H](Cc1ccccc1)NC(=O)O[C@H]1CO[C@H]2OCC[C@H]21)C(C)C ; Ki = 0.074

====

# TARGET ENTITY: Protease (Human immunodeficiency virus 1, UniProt Q9YQ12, I84V)
# Sequence (Q9YQ12 entry or part of it I84V): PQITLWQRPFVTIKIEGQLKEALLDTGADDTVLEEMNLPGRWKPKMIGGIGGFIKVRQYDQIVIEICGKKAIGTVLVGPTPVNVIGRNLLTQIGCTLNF
# ASSAY PROTOCOL: Inhibition of HIV1 NL4-3 protease I84V mutant expressed in Escherichia coli TAP-106 cells using EDANS/DABCYL-labelled 10-amino acid containing protease cleavage site as substrate preincubated for 1 hr followed by substrate addition and measured for 60 mins by FRET assay
Reported Ki by item:
Just the number in nM, nothing appended.

The following compounds have reported results that may help.
>>> test_result("COC(=O)N[C@H](C(=O)N[C@@H](Cc1ccccc1)C[C@H](O)[C@H](Cc1ccccc1)NC(=O)O[C@H]1CO[C@H]2OCC[C@H]21)C1CCCC1")
1.18
>>> test_result("COC(=O)N[C@H](C(=O)N[C@@H](Cc1ccccc1)C[C@H](O)[C@H](Cc1ccccc1)NC(=O)O[C@H]1CO[C@H]2OCC[C@H]21)C(C)(C)C")
0.372
>>> test_result("Cc1cccc(C)c1OCC(=O)N[C@@H](Cc1ccccc1)[C@@H](O)C[C@H](Cc1ccccc1)NC(=O)O[C@H]1CO[C@H]2OCC[C@H]21")
0.069

Entry CC[C@H](C)[C@H](NC(=O)OC)C(=O)N[C@@H](Cc1ccccc1)[C@@H](O)C[C@H](Cc1ccccc1)NC(=O)O[C@H]1CO[C@H]2OCC[C@H]21 ; Ki = 0.198

Entry COC(=O)N[C@H](C(=O)N[C@@H](Cc1ccccc1)[C@@H](O)C[C@H](Cc1ccccc1)NC(=O)O[C@H]1CO[C@H]2OCC[C@H]21)C(C)(C)C ; Ki = 0.208

Entry COC(=O)N[C@@H](C)C(=O)N[C@@H](Cc1ccccc1)[C@@H](O)C[C@H](Cc1ccccc1)NC(=O)O[C@H]1CO[C@H]2OCC[C@H]21 ; Ki = 0.069

====

# TARGET ENTITY: Protease (Human immunodeficiency virus 1, UniProt Q9YQ12, A71V/I50V)
# Sequence (Q9YQ12 entry or part of it A71V/I50V): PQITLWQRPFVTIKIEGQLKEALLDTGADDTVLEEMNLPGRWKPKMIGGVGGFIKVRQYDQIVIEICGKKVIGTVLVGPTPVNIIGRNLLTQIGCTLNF
# ASSAY PROTOCOL: Inhibition of HIV1 NL4-3 protease I50V/A71V mutant expressed in Escherichia coli TAP-106 cells using EDANS/DABCYL-labelled 10-amino acid containing protease cleavage site as substrate preincubated for 1 hr followed by substrate addition and measured for 60 mins by FRET assay
OBSERVATION TYPE: pKi
A value of pKi is the negative decimal logarithm of a concentration given in moles per litre.

The following compounds have reported results that may help.
>>> test_result("COC(=O)NC1(C(=O)N[C@@H](Cc2ccccc2)C[C@H](O)[C@H](Cc2ccccc2)NC(=O)O[C@H]2CO[C@H]3OCC[C@H]32)CCCC1")
7.40
>>> test_result("COC(=O)N[C@H](C(=O)N[C@@H](Cc1ccccc1)[C@@H](O)C[C@H](Cc1ccccc1)NC(=O)O[C@H]1CO[C@H]2OCC[C@H]21)C(C)C")
9.53

Okay, now this compound:
pKi value, target or system Protease (Human immunodeficiency virus 1, UniProt Q9YQ12, A71V/I50V), for COC(=O)N[C@H](C(=O)N[C@@H](Cc1ccccc1)[C@@H](O)C[C@H](Cc1ccccc1)NC(=O)O[C@H]1CO[C@H]2OCC[C@H]21)C(C)(C)C : 9.56
